- Test system: HCC-78
- ASSAY NOTES: relative viability (nuclei count vs DMSO), 5 days (fraction); higher = more cells survive
- ASSAY CONDITIONS: first compound 0.1 µM
MEASURED ENDPOINT: relative viability
Give the figure only, with no unit attached.

Example entries begin here.
# COMPOUND, relative viability
records = [
    ("Cc1cn(-c2cc(NC(=O)c3ccc(C)c(Nc4nccc(-c5cccnc5)n4)c3)cc(C(F)(F)F)c2)cn1 [Nilotinib] + COc1cccc2cc(-c3nc([C@H]4CC[C@H](C(=O)O)CC4)n4ncnc(N)c34)[nH]c12 [OSI-027] (partner 0.5 µM)", 0.403),
    ("Cc1cn(-c2cc(NC(=O)c3ccc(C)c(Nc4nccc(-c5cccnc5)n4)c3)cc(C(F)(F)F)c2)cn1 [Nilotinib] + O=C(c1cc(Cc2n[nH]c(=O)c3ccccc23)ccc1F)N1CCN(C(=O)C2CC2)CC1 [Olaparib] (partner 8 µM)", 0.752),
]

The compound listed as Cc1cn(-c2cc(NC(=O)c3ccc(C)c(Nc4nccc(-c5cccnc5)n4)c3)cc(C(F)(F)F)c2)cn1 [Nilotinib] + CS(=O)(=O)CCNCc1ccc(-c2ccc3ncnc(Nc4ccc(OCc5cccc(F)c5)c(Cl)c4)c3c2)o1 [Lapatinib] (partner 2 µM) shows relative viability equal to 0.571

The compound listed as Cc1cn(-c2cc(NC(=O)c3ccc(C)c(Nc4nccc(-c5cccnc5)n4)c3)cc(C(F)(F)F)c2)cn1 [Nilotinib] + Cc1cc(Nc2cc(N3CCN(C)CC3)nc(Sc3ccc(NC(=O)C4CC4)cc3)n2)n[nH]1 [Tozasertib] (partner 0.1 µM) shows relative viability equal to 0.28

The compound listed as Cc1cn(-c2cc(NC(=O)c3ccc(C)c(Nc4nccc(-c5cccnc5)n4)c3)cc(C(F)(F)F)c2)cn1 [Nilotinib] + CS(=O)(=O)N1CCN(Cc2cc3nc(-c4cccc5[nH]ncc45)nc(N4CCOCC4)c3s2)CC1 [Pictilisib] (partner 1 µM) shows relative viability equal to 0.224

The compound listed as Cc1cn(-c2cc(NC(=O)c3ccc(C)c(Nc4nccc(-c5cccnc5)n4)c3)cc(C(F)(F)F)c2)cn1 [Nilotinib] + CC(=O)Nc1cccc(-n2c(=O)n(C3CC3)c(=O)c3c(Nc4ccc(I)cc4F)n(C)c(=O)c(C)c32)c1 [Trametinib] (partner 0.02 µM) shows relative viability equal to 0.863

The compound listed as Cc1cn(-c2cc(NC(=O)c3ccc(C)c(Nc4nccc(-c5cccnc5)n4)c3)cc(C(F)(F)F)c2)cn1 [Nilotinib] + O=C(CCCCCCC(=O)Nc1ccccc1)NO [Vorinostat] (partner 1 µM) shows relative viability equal to 0.565

The compound listed as Cc1cn(-c2cc(NC(=O)c3ccc(C)c(Nc4nccc(-c5cccnc5)n4)c3)cc(C(F)(F)F)c2)cn1 [Nilotinib] + CC(C)C[C@H](NC(=O)[C@H](Cc1ccccc1)NC(=O)c1cnccn1)B(O)O [Bortezomib] (partner 0.002 µM) shows relative viability equal to 0.518

* * *

This listing pairs molecules with measured relative viability.
- Tested on: ABC-1
- ASSAY NOTES: relative viability (nuclei count vs DMSO), 5 days (fraction); higher = more cells survive
- ASSAY CONDITIONS: first compound 6.325 µM
Give the figure only, with no unit attached.

The molecule listed as Cc1csc(=NC2CCCCC2)n1/N=C/c1ccc(O)c(O)c1O [MIM1] + COc1cccc2cc(-c3nc([C@H]4CC[C@H](C(=O)O)CC4)n4ncnc(N)c34)[nH]c12 [OSI-027] (partner 0.5 µM) shows relative viability equal to 0.236
